System: Escherichia coli TOP10;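 note: peptides expressed intracellularly from a pBAD plasmid library in pooled LB shake-flask culture, induced with 0.3% L-arabinose, DNA abundance read by NGS, three biological replicates, DESeq2 with apeglm shrinkage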
Assay: shrunken log2 fold change of peptide-encoding DNA abundance (4.5 h post-induction vs induction); higher = less antimicrobial activity (less host growth inhibition)
Details: time post-induction: 4.5 h; library: site-saturation at positions 5, 18, 19, 20
METRIC: shrunken log2 fold change
Lab note: record just the number, no unit beside it.

Request: I am curious: what shrunken log2 fold change value has been reported for `RRIRCRPPRLPRPRPRPICEPRP` ?
Result: -0.178

Request: What value of shrunken log2 fold change has been reported for the following sequence? `RRIRWRPPRLPRPRPRPPTFPRP`
Result: -0.0697

Request: Could you share which shrunken log2 fold change value was measured for `RRIRARPPRLPRPRPRPRGMPRP` ?
Result: 0.32

Request: Which measured shrunken log2 fold change value corresponds to `RRIRARPPRLPRPRPRPIHSPRP` ?
Result: -0.184

Request: Return reported shrunken log2 fold change; argument: `RRIRNRPPRLPRPRPRPYYYPRP`
Result: -0.0857

Request: I am curious: what shrunken log2 fold change value has been reported for `RRIRYRPPRLPRPRPRPGKGPRP` ?
Result: -0.0232

Request: What value of measured shrunken log2 fold change is listed for `RRIRRRPPRLPRPRPRPTFDPRP` ?
Result: 0.425

Request: Find the recorded shrunken log2 fold change belonging to `RRIRHRPPRLPRPRPRPKMAPRP` and report it.
Result: -0.0953

Request: May I ask what shrunken log2 fold change has been recorded for `RRIRCRPPRLPRPRPRPGAWPRP` ?
Result: 0.462

Request: Entry `RRIRGRPPRLPRPRPRPPDKPRP` : reported shrunken log2 fold change = ?
Result: 1.17

Request: If you can, please state the reported shrunken log2 fold change value of `RRIRLRPPRLPRPRPRPGVQPRP` .
Result: 0.0642

Request: May I ask what shrunken log2 fold change has been recorded for `RRIRQRPPRLPRPRPRPVIKPRP` ?
Result: -0.772

Request: Would you kindly share the measured shrunken log2 fold change for `RRIRDRPPRLPRPRPRPNAFPRP` ?
Result: -0.0726

Request: // shrunken log2 fold change lookup, key: `RRIRWRPPRLPRPRPRPWLGPRP`
Result: 0.00929

Request: Requested field: shrunken log2 fold change. Item: `RRIRARPPRLPRPRPRPTKGPRP`
Result: 0.308
